System: HIV-1IIIB
measurement.protocol: Acute HIV infection assay (XTT, CEM cells)
experimental.setup: Table 3; inhibition of HIV
measurement.name: IC50

# annotated cases, reported IC50 shown
# substance, IC50
data = [
    ("5667 (DNA TTGGGGTTGGGGTT; unmodified DNA) [compound 5667]", "> 22000 nM"),
    ("5668 (DNA TTGGGGTTGGGG; unmodified DNA) [compound 5668]", "> 21000 nM"),
    ("5590 (GGGGTTGGGG; phosphodiester, further chemistry not given here) [compound 5590]", "> 25000 nM"),
    ("5653 (TTGGGGTTGGGGTTGGGG; phosphorothioate, further chemistry not given here) [compound 5653]", "190 nM"),
    ("5650 (TTGGGGTTGGGGTTGGGGTT; phosphodiester, further chemistry not given here) [compound 5650]", "640 nM"),
]

Now, please, on to the next substance.
Looking up 5669 (DNA GGGGTTGGGGTTGGGG; unmodified DNA) [compound 5669] , I found its IC50 recorded as 1200 nM
